B1: HEEH_KT_rd6_0790 (parent)
chain: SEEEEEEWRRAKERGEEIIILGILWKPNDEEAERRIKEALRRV

Variants of: B1
Assay: folding stability dG (cDNA display proteolysis); higher = more stable
Conditions: PBS, room temperature
folding stability dG for assorted variants
recordedMetric: folding stability dG (kcal/mol)

1. I23W ... 0.765
2. E7W ... 2.86
3. E5V ... 1.73
4. I18A ... 1.59
5. K12H ... 1.96
6. R41P ... 0.888
7. W8I ... 1.48
8. I19R ... 1.77
9. I18C ... 2.38
10. A11T ... 1.26
11. N28Q ... 1.82
12. D29H ... 1.28
13. R9W ... 1.92
14. E3P ... 2.29
15. L40F ... 1.78
16. I19S ... 1.52
17. K12M ... 2.37
18. A11M ... 1.94
19. G22Y ... 1.98
20. K26P ... 1.26
21. R9C ... 1.75
22. E5W ... 2.42
